- experimental-protocol: Competitive TR-FRET assay modified for mAbs and Fabs (T0, T24, T48)
- Type: binding
- condition-description: 37° C.; IC50 shift at 48 hr relative to T0
metric: T48 hr IC50 shift (nM)
Write the value in nM as a bare number.

Task: Give a short answer stating reported T48 hr IC50 shift for 26D5-75768-348-A10-mAb: human IgG1f/kappa mAb; VH SEQ ID NO: 56, VL SEQ ID NO: 89 (antibody, V domains shown) VH: EVQLVESGGGLIQPGGSLRLSCAASGFTVSSNAVSIVRQAPGKGLEWVAYIYPGGRTYYADSVKGRFTISRDNSKNTLYLQMNSLRAEDTAVYYCTIGGFGGGDYWGQGTLVTVSS VL: DIQMTQSPSSVSASVGDRVTITCRASQGISSNNQWYQQKPGKAPKLLIYYASSLQSGVPSRFSGSGSGTDFTLTISSLQPEDFATYYCQQGNEFPLTFGGGTKVEIK .
Result: 1.1
